Target: T1, RBFOX1 RRM RbFoxmut (Fox-RRM*) (Homo sapiens, UniProt Q9NWB1 109-208, R118D;E147R;N151S;E152T)
T1 sequence: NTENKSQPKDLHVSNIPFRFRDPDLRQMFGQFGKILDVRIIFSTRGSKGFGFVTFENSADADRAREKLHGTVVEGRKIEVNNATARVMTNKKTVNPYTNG
Experiment: EMSA; HiTS-Eq, 1 nM pool, 10 min; buffer printed only for the single-RNA assays: 10 mM Tris pH 7.5, 150 mM NaCl, 3.4 mM EDTA, 0.001% NP-40, 30 C
Settings: tags: His6 N-terminal (pET28a); label: 5' 32P
Over roughly 16,000 sequences, “ka relative to ugcaugu” has its median near 0.096; the highest 2% begin near 0.35. The full list was thinned out, with the highest values kept by preference.
measurement-label: binding signal

Write down binding signal measured for item UCGAAUC (DNA:RNA) RNA: GGGAGACCGGAAUUCAGAUUGUCCUCGAAUCUUAAAUCCCGUCGUAGCCACCA DNA 1: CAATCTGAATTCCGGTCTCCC DNA 2: TGGTGGCTACGACGGGATT
0.36 KA relative to UGCAUGU

Give the measured binding signal for AUCUGAU (DNA:RNA) RNA: GGGAGACCGGAAUUCAGAUUGUCCAUCUGAUUUAAAUCCCGUCGUAGCCACCA DNA 1: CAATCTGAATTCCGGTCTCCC DNA 2: TGGTGGCTACGACGGGATT
0.0592 KA relative to UGCAUGU

Fill in reported binding signal for this entry: AUCCAUG (DNA:RNA) RNA: GGGAGACCGGAAUUCAGAUUGUCCAUCCAUGUUAAAUCCCGUCGUAGCCACCA DNA 1: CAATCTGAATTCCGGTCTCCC DNA 2: TGGTGGCTACGACGGGATT
0.1 KA relative to UGCAUGU

In one line, give reported binding signal of the entry GCAUGUG (DNA:RNA) RNA: GGGAGACCGGAAUUCAGAUUGUCCGCAUGUGUUAAAUCCCGUCGUAGCCACCA DNA 1: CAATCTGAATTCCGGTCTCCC DNA 2: TGGTGGCTACGACGGGATT .
0.954 KA relative to UGCAUGU

Indicate its recorded binding signal; the binder in question is CCUUCAG (DNA:RNA) RNA: GGGAGACCGGAAUUCAGAUUGUCCCCUUCAGUUAAAUCCCGUCGUAGCCACCA DNA 1: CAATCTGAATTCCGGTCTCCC DNA 2: TGGTGGCTACGACGGGATT
0.114 KA relative to UGCAUGU

Using known records, supply binding signal for AUGAAUG (DNA:RNA) RNA: GGGAGACCGGAAUUCAGAUUGUCCAUGAAUGUUAAAUCCCGUCGUAGCCACCA DNA 1: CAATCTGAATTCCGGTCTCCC DNA 2: TGGTGGCTACGACGGGATT
1.02 KA relative to UGCAUGU

Provide one value: measured binding signal of ACCAUGA (DNA:RNA) RNA: GGGAGACCGGAAUUCAGAUUGUCCACCAUGAUUAAAUCCCGUCGUAGCCACCA DNA 1: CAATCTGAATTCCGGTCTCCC DNA 2: TGGTGGCTACGACGGGATT
0.076 KA relative to UGCAUGU

Check the records and state binding signal for AUGAUUC (DNA:RNA) RNA: GGGAGACCGGAAUUCAGAUUGUCCAUGAUUCUUAAAUCCCGUCGUAGCCACCA DNA 1: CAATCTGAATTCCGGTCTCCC DNA 2: TGGTGGCTACGACGGGATT
0.139 KA relative to UGCAUGU

Please give the documented binding signal of UCGAAUG (DNA:RNA) RNA: GGGAGACCGGAAUUCAGAUUGUCCUCGAAUGUUAAAUCCCGUCGUAGCCACCA DNA 1: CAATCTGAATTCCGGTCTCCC DNA 2: TGGTGGCTACGACGGGATT
1.31 KA relative to UGCAUGU
